Tested on: HeLa (cervical cancer)
Assay: Cytocidal action/growth inhibition, HeLa
Type: cell-based
Conditions: Homo sapiens, 72 h, Table 4, read-out: I50
RESULT TYPE: IC50
Enter the number, and then the unit.

Lookup result for COC(=O)c1cc(I)c(Oc2ccc(OC)cc2)c(I)c1 ; measured IC50: 600 nM

---

Test system: HT 144 (melanoma)
Experiment: Cytocidal action/growth inhibition, HT 144
Assay type: cell-based
Settings: Homo sapiens, HT-144; 72 h; Table 4; read-out: I50
RESULT TYPE: pIC50
pIC50 is defined as minus the log10 of a concentration measured in mol/L.

The recorded pIC50 with HT 144 (melanoma) for COC(=O)c1cc(I)c(Oc2ccc(OC)cc2)c(I)c1 [Compound 1] was 6.30

The reported measurements were obtained from patent US6017958A.
